target: Human cytomegalovirus DNA polymerase (Human cytomegalovirus, UniProt P08546)
Sequence (P08546 whole entry): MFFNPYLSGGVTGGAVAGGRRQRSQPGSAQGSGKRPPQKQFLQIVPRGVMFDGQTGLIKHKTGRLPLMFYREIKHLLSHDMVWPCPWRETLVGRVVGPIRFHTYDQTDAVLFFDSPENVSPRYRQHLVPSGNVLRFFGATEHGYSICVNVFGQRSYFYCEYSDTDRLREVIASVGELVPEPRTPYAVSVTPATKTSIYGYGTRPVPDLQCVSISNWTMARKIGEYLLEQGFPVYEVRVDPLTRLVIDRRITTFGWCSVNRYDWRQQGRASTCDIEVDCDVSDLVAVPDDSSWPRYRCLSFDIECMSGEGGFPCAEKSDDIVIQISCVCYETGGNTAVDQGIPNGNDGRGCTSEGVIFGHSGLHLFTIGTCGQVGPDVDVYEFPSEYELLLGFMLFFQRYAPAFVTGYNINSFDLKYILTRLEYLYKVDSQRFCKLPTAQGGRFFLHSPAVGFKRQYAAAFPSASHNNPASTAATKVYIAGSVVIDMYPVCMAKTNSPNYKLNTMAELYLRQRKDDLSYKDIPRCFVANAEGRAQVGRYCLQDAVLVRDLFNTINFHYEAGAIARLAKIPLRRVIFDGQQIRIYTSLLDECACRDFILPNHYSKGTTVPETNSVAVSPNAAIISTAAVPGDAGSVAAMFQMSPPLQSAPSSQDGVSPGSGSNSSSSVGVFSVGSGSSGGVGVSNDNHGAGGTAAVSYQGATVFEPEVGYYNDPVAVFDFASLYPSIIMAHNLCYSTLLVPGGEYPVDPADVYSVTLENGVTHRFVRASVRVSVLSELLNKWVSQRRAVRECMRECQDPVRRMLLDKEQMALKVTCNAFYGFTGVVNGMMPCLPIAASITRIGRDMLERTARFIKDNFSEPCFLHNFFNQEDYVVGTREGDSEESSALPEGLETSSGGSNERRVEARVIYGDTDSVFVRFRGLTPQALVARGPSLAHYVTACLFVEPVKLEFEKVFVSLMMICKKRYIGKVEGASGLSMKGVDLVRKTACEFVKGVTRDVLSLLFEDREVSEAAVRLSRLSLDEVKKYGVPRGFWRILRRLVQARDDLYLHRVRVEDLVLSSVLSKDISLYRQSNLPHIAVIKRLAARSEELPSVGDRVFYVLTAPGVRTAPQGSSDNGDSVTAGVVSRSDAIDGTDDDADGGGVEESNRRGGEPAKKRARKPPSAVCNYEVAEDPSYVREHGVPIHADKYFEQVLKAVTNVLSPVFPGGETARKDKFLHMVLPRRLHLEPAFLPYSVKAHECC
PROPERTY_NAME: IC50 (nM)
Answers are plain numbers, in nM.

molecule="O=C(NCc1ccc(Cl)nc1)c1cc(O[C@H]2CCN3C(=O)OC[C@@H]3C2)c(-c2cnn(C(F)F)c2)cn1 [Compound 86]" val=189
molecule="CC(=O)N1CCC(Oc2cc(C(=O)NCc3ccc(Cl)cc3)ncc2-c2cnn(C)c2)CC1 [Compound 6]" val=79
molecule="CC(=O)N1CCC(Oc2cc(C(=O)NCc3ccc(Cl)cc3)ncc2-c2nnc(C3CC3)s2)CC1 [Compound 57]" val=86.9
molecule="O=C(NCc1ccc(Cl)cc1)c1cc(O[C@H]2CCN3C(=O)OC[C@@H]3C2)c(CN2CCC(O)CC2)cn1 [Compound 135]" val=90
molecule="C[C@@H]1CN(C)CCN1c1cc(C(=O)NCc2ccc(Cl)cc2)ncc1OCC(F)(F)F [Compound 176]" val=218

Give IC50 for each listed item.
1. CO[C@H]1CN(Cc2cnc(C(=O)NCc3ccc(Cl)cc3)cc2O[C@H]2CCN3C(=O)OC[C@@H]3C2)[C@@H]1C (mixture of isomers) [Compound 137]
2. CC(=O)N1CCC(Oc2cc(C(=O)NCc3ccc(Cl)cc3)ncc2-c2cnoc2)CC1 [Compound 53]
3. CC(=O)N1CCC(Oc2cc(C(=O)NCc3ccc(Cl)cc3)ncc2/C=C/CC(C)O)CC1 (stereo not drawn) [Compound 72]
4. CN1CCN(c2cc(C(=O)NCc3ccc(C#N)cc3)ncc2C#N)[C@H](CF)C1 [Compound 174]
5. CC(=O)N1CCC(Oc2cc(C(=O)NCc3ccc(Cl)cc3)ncc2-c2nnc(C)o2)CC1 [Compound 153]
6. Cn1cc(-c2cnc(C(=O)NCc3ccc(C#N)c(F)c3)cc2O[C@H]2CCN3C(=O)OC[C@@H]3C2)cn1 [Compound 93]

1: 35; 2: 56.5; 3: 68.8; 4: 36.5; 5: 66.2; 6: 1.42

Give IC50 for each listed item.
1. CC(=O)N1CCC(Oc2cc(C(=O)NCc3ccc(Cl)cc3)ncc2-c2cnn(C(F)F)c2)CC12CC2 (stereo not drawn) [Compound 160]
2. CC(=O)N1CCC(Oc2cc(C(=O)NCc3ccc(Cl)cc3)ncc2-c2cncs2)CC1 [Compound 51]
3. C[C@@H]1CN(C)CCN1c1cc(C(=O)NCc2ccc(C#N)cc2)ncc1C#N [Compound 172]
4. CC(C)Cn1cc(-c2cnc(C(=O)NCc3ccc(Cl)cc3)cc2O[C@H]2CCN3C(=O)OC[C@@H]3C2)cn1 (racemic) [Compound 11]

[135, 48.5, 128, 70.5]
